I'd be grateful if you could share measured apparent Kd for these entries.
test system: MS2 coat protein; test: apparent Kd, MS2 coat protein; higher = weaker binding; RNA-MaP array; FMN 200 µM where present; details: ligand present: flavin mononucleotide; designed as: OFF switch for flavin mononucleotide
Number in nM, nothing else.

Let me know recorded apparent Kd for GUGGCACAUGAGGAUCACCCAUGUCAGGAUAUCGCGUGGUUUUUUGCGGCCGCGCGCGCGAGAAGGGACGUCUU , thanks.
38.1

Let me know recorded apparent Kd for GCCUCACAUGAGGAUCACCCAUGUCAGGAUAUCUAAGGCGAAGUGCAAGCACCUCGUGAGAGAAGGGACGUCAA , thanks.
47.6

Let me know recorded apparent Kd for UUUCCACAUGAGGAUCACCCAUGUAAGGAUAUGUAGCGCGGGCUGGUGUCCGAGUGUUACAGAAGGUGCUGGCG , thanks.
33.7

Let me know recorded apparent Kd for UAUAUAUAGUAAGGAUAUGUAUAAAUUUUAUAAACAGAAGGUACUGACAUGAGGAUCACCCAUGUUUUAGUGUGGGCAUGUAGA , thanks.
147

###

test system: MS2 coat protein; assay: apparent Kd, MS2 coat protein; higher = weaker binding; RNA-MaP array; FMN 200 µM where present; details: ligand present: flavin mononucleotide; designed as: OFF switch for flavin mononucleotide
I'd be grateful if you could share measured apparent Kd for these entries.
In your response, the unit should come after the numeric value.

Let me know recorded apparent Kd for CUCUUAGCAGGAUAUACAUUAUCCCAGUCAUGGUCGGCGACACAUGAGGAUCACCCAUGUAGAAGGGCUAUGAG , thanks.
52.8 nM

Let me know recorded apparent Kd for GCCAAGGUACAGAAGGGACUACAUGAGGAUCACCCAUGUGUUUCUGCACGUAAAUGAUACAGUGGUCAGGAUAUGUGCUCCAAA , thanks.
25.8 nM

Let me know recorded apparent Kd for UAAAACGGAGGAUAUACUGACCCUCAAAACAGACGCGCUGGACAUGAGGAUCACCCAUGUAGAAGGCCGAAUGC , thanks.
61.9 nM

Let me know recorded apparent Kd for UCUCUUCUGUAGAAGGCCCGACUUGUGAAGACAACAAUGCUAUAGAAGUAGGGAGGAUAUACAUGAGGAUCACCCAUGUAGGAA , thanks.
29.3 nM

Let me know recorded apparent Kd for CGUCCACAUGAGGAUCACCCAUGUGAGGAUAUCGAUGUCCCAGGGCGGGUGCGGGACUCGAGAAGGCACUAGGU , thanks.
93.6 nM

Let me know recorded apparent Kd for GCCGCUGUAGGAUAUGCCAGGGUGGCAGCUUGAUGUGUGGCACAUGAGGAUCACCCAUGUAGAAGGACAGAAAG , thanks.
50.8 nM

Let me know recorded apparent Kd for UAAUAAUAGCAAGGAUAUGGUUAUUAUAAUAUACCAGAAGGUGCACAUGAGGAUCACCCAUGUUUUAUAAUUUGUAAUUUAAAU , thanks.
27.3 nM

Let me know recorded apparent Kd for UACAUGAGGAUCACCCAUGUUUUGUCGUGUAUGGUAUUUAUCUAGGAUAUCAUUUUAUUUAGGUAUGAGAAGGAGAAUAUUAAU , thanks.
36.2 nM

Let me know recorded apparent Kd for UCCGUGUGAGGAUAUUACGCUGUUCGGGAAACGCUCAUAGGUAAGAAGGCACAUGAGGAUCACCCAUGUCCAUA , thanks.
54.8 nM

Let me know recorded apparent Kd for GUCAGCUCGUGAGGAUAUACAACAGUGCUUCGGCAGUGUAUUAAGAUCACAUGAGGAUCACCCAUGUAGAAGGCACGAGCUGAU , thanks.
207 nM

Let me know recorded apparent Kd for CUUUUGUGAGGAUAUCAGUAGUAAUACAAUAGUAUUACUAUUGAGAAGGCACAUGAGGAUCACCCAUGUUCCUC , thanks.
156 nM

Let me know recorded apparent Kd for GGAUAGGACAGAGGAUAUACGGCUAGGAGAUACUAGCCACUAUUCCUCACAUGAGGAUCACCCAUGUAGAAGGCUGUCCUAUCG , thanks.
109 nM

Let me know recorded apparent Kd for AUCCAGCGAGGAUAUACUUUGAUUUUUUCGUUUUGUCUCGAACAUGAGGAUCACCCAUGUAGAAGGUGCUUCAC , thanks.
59.8 nM

Let me know recorded apparent Kd for CUCUUUUAAGGAUAUACAUGAGGAUCACCCAUGUGCAUAGGUAUGUCCGGGUCCUGGAGUAGAAGGUGGGACGG , thanks.
58.4 nM

Let me know recorded apparent Kd for GCCGAAGGACCCUGACGGGUCGGCUAGGAUAUACAUGAGGAUCACCCAUGUGCGGUUAUUCACGAGUAGAAGGAGCCUCGGCAA , thanks.
80.9 nM

###

test system: MS2 coat protein; assay: apparent Kd, MS2 coat protein; higher = weaker binding; RNA-MaP array; FMN 200 µM where present; conditions: ligand present: flavin mononucleotide; designed as: OFF switch for flavin mononucleotide
I'd be grateful if you could share measured apparent Kd for these entries.
Number in nM, nothing else.

Let me know recorded apparent Kd for GCCAUGCUGGUGACGGAUAACACAUGAGGAUCACCCAUGUACAGAAGGCGGAAUUAGCGUAGGACCGAGGAUAUGUACGUGAGG , thanks.
26.4

Let me know recorded apparent Kd for GGAAAUCAUGUAGGAUAUGCAUGGCGAAGCUACGCAGAAGGACAUGAGGAUCACCCAUGUUAUAGCUACCCGUUACGGUGGCAA , thanks.
119

Let me know recorded apparent Kd for UAAUUUUUGACAGGAUAUCCAUGUACAUGAGGAUCACCCAUGUAAAAGGGUAGCCUCAUCGGGCAGGAGAAGGGUCGAUAGGCG , thanks.
134

Let me know recorded apparent Kd for GAUUAACAUGAGGAUCACCCAUGUGAGGAUAUGGACUGGCUCACUUUCCGAUUCGAGUCUAGAAGGCGCAUCUU , thanks.
35.2

Let me know recorded apparent Kd for AUCAUGAGAGGAUAUACAUGAGGAUCACCCAUGUUGUUAACACCAUGAGCUCAUUUACGUAGAAGGCUCAUUUG , thanks.
51.9

Let me know recorded apparent Kd for ACUAGAUGAGGAUAUGCAUAUUUUCGUGUUCUUCUAGAUUAACAUGAGGAUCACCCAUGUAGAAGGCGUCUGGC , thanks.
33.8

Let me know recorded apparent Kd for UAGGUCGCAGGAUAUGCUGGGUGCAUAUCUUAGUGCAGGAGACAUGAGGAUCACCCAUGUAGAAGGGCGCGCUG , thanks.
124

###

system: MS2 coat protein; test: apparent Kd, MS2 coat protein; higher = weaker binding; RNA-MaP array; FMN 200 µM where present; conditions: designed as: OFF switch for flavin mononucleotide; no ligand
I'd be grateful if you could share measured apparent Kd for these entries.
In your response, the unit should come after the numeric value.

Give apparent Kd only, for GGAUUACAAAUUUAUUUAAUACGAACAUGAGGAUCACCCAUGUAGGAUAUGCUAGUUAAGUAAUAGCAGAAGGACAUGUGCCUU , using MS2 coat protein data.
10.8 nM

Give apparent Kd only, for UUGUUUUUUGAGGAUAUGCGACGUUUUUUCGUCGUAGAAGGCGAUACAUGAGGAUCACCCAUGUUUAUGGGCAU , using MS2 coat protein data.
124 nM

Give apparent Kd only, for GCGGCUAGUGCAGGAUAUCGGCGCGUGUAGUGCCGAGAAGGGCACAUGAGGAUCACCCAUGUGAUCAAUCACUGCUAAGGCCGC , using MS2 coat protein data.
5.26 nM

Give apparent Kd only, for UACAUGAGGAUCACCCAUGUUUUGUCGUGUAUGGUAUUUAUCUAGGAUAUCAUUUUAUUUAGGUAUGAGAAGGAGAAUAUUAAU , using MS2 coat protein data.
35.4 nM

Give apparent Kd only, for GGGUCGUCAGGAUAUACAUGAGGAUCACCCAUGUGACCACACUUACCUAUCGCUCGCUGUAGAAGGGAUGAUGA , using MS2 coat protein data.
30.3 nM

Give apparent Kd only, for CAUUUCAUGUCAGGAUAUCCGCGCAGCUUCACGCACGAUAUAAGGGAGCUUGGAGAAGGGACAUGAGGAUCACCCAUGUGCCUC , using MS2 coat protein data.
10.9 nM

Give apparent Kd only, for CGAGUUUUUGAGAAGGCAUAUAAUAAGAUUUCCCAUGUUAACAUGAGGAUCACCCAUGUUUAGUAUGAGGAUAUCAGUAGGUCG , using MS2 coat protein data.
5.79 nM

Give apparent Kd only, for GAUUAACAUGAGGAUCACCCAUGUGAGGAUAUGGACUGGCUCACUUUCCGAUUCGAGUCUAGAAGGCGCAUCUU , using MS2 coat protein data.
32.8 nM

Give apparent Kd only, for GCCAUGCUGGUGACGGAUAACACAUGAGGAUCACCCAUGUACAGAAGGCGGAAUUAGCGUAGGACCGAGGAUAUGUACGUGAGG , using MS2 coat protein data.
89.5 nM

Give apparent Kd only, for AAAAACGGAGGAUAUACAAAAAAAAAAAAAAAAAAAAUGGGACAUGAGGAUCACCCAUGUAGAAGGCCGAAAAA , using MS2 coat protein data.
72 nM

Give apparent Kd only, for GGAUAGGACAGAGGAUAUACGUGCUAGAGAUACUAGCAAAAUUUCCUCACAUGAGGAUCACCCAUGUAGAAGGCUGUCCGAUCG , using MS2 coat protein data.
14.6 nM

Give apparent Kd only, for GUACGGAAGGAGAAGGGCUAGGAGGUCCAGUUUAUGUGUGUUGCAACAUGAGGAUCACCCAUGUAGCAGGAUAUCCUUUGUACA , using MS2 coat protein data.
85.6 nM

Give apparent Kd only, for GAUAGAGAGCAGGAUAUCUUGGGUAAGUAUCGUAGAGAAGGGCUCACAUGAGGAUCACCCAUGUGGUCCAAGAU , using MS2 coat protein data.
14.2 nM

Give apparent Kd only, for GGAUAGGACAGAGGAUAUACGGCUAGGAGAUACUAGCCACUAUUCCUCACAUGAGGAUCACCCAUGUAGAAGGCUGUCCUAUCG , using MS2 coat protein data.
16.9 nM

Give apparent Kd only, for UAUAUAUAGGCAGGAUAUACAUGAAUAUAUAUAAUAUAAUAUGAUGUAACAUGAGGAUCACCCAUGUAGAAGGGCCAAUAUAUA , using MS2 coat protein data.
32.6 nM

Give apparent Kd only, for AAAAAACAUGAGGAUCACCCAUGUUAGGAUAUCCUGCAGAAAAAAAAAAAAAACUGCAGGAGAAGGAGCAAGGA , using MS2 coat protein data.
90 nM

Give apparent Kd only, for CCUCCCUGAGGAUAUCCACCCUCAUACAUGAGGAUCACCCAUGUUCAACCCUGGGUUCCCGGAGAAGGCAGCUUCC , using MS2 coat protein data.
260 nM
